Tested on: E. coli ATCC 25922
Test details: Broth microdilution MIC in CAMHB
Type: cell-based
Recorded conditions: Escherichia coli, ATCC25922; E. coli ATCC 25922; MHB; read-out: Minimum Inhibitory Concentration, E. coli 25922
Description: Example III: In Vitro Antibacterial Assays To determine the ability of test compounds to inhibit the growth of bacterial strains, classic cell based broth microdilution minimum inhibitory concentration (MIC) assays were employed. […] Briefly, cryo-preserved bacterial cultures of challenge strains are streaked for isolation on appropriate agar medium, in this case cation-adjusted Mueller Hinton agar. […] The MIC values are read visually as the lowest concentration well with no bacterial growth.
Quick reference: MIC of the listed items.

For orientation, consider the following solved cases.
CCN1CCN(C(=O)NC(C(=O)N[C@H]2Cc3cccc(C(=O)O)c3OB2O)c2cccc(CNS(N)(=O)=O)c2)C(=O)C1=O (stereo partly shown) [Example 107] :: 32 to 64 µg/mL
CCN1CCN(C(=O)NC(C(=O)N[C@H]2Cc3cccc(C(=O)O)c3OB2O)c2cc(F)c(C(=O)O)c(F)c2)C(=O)C1=O (stereo partly shown) [Example 141] :: 32 to 64 µg/mL
NCCN1CCN(C(=O)N[C@@H](C(=O)N[C@H]2Cc3cccc(C(=O)O)c3OB2O)c2ccc(O)cc2Cl)C(=O)C1=O (single isomer, unassigned) [Example 86] :: 32 to 64 µg/mL

Please turn your attention to the following entry.
Note to self: MIC recorded for CCN1CCN(C(=O)NC(C(=O)N[C@H]2Cc3cccc(C(=O)O)c3OB2O)c2c(Cl)cc(C(=O)O)cc2Cl)C(=O)C1=O (stereo partly shown) [Example 150] was > 128 µg/mL

---

Tested on: N. gonorrhoeae FA1090
Test details: Liquid broth MIC in Fastidious broth
Type: cell-based
Recorded conditions: Neisseria gonorrhoeae; N. gonorrhoeae strain FA1090; Fastidious broth; read-out: Minimum Inhibitory Concentration, N. gonorrhoeae FA1090
Quantity kind: MIC

// known answers, use as guide
NCCN1CCN(C(=O)N[C@H](C(=O)N[C@H]2Cc3cccc(C(=O)O)c3OB2O)c2ccc(O)c(F)c2F)C(=O)C1=O (single isomer, unassigned) [Example 169] :: 4 to 8 µg/mL
CCN1CCN(C(=O)NC(C(=O)N[C@H]2Cc3cccc(C(=O)O)c3OB2O)c2c(F)cc(O)cc2Cl)C(=O)C1=O (stereo partly drawn) [Example 95] :: < 0.125 µg/mL
NCCN1CCN(C(=O)N[C@@H](C(=O)N[C@H]2Cc3ccc(F)c(C(=O)O)c3OB2O)c2c(F)cc(O)c(O)c2F)C(=O)C1=O (single isomer, unassigned) [Example 40] :: 4 to 8 µg/mL
CCN1CCN(C(=O)NC(C(=O)N[C@H]2Cc3ccc(OCCN)c(C(=O)O)c3OB2O)c2ccccc2)C(=O)C1=O (stereo partly drawn) [Example 60] :: 16 to 32 µg/mL

For this compound ( NCCN1CCN(C(=O)N[C@@H](C(=O)N[C@H]2Cc3cccc(C(=O)O)c3OB2O)c2cc(F)c(O)c(F)c2F)C(=O)C1=O (single isomer, unassigned) [Example 168] ), measured MIC is 0.25 to 0.5 µg/mL

Query CCN1CCN(C(=O)N[C@H](C(=O)N[C@H]2Cc3cccc(C(=O)O)c3OB2O)c2nc(Cl)c(C(=O)O)cc2F)C(=O)C1=O [Example 19] yields MIC of 1 to 2 µg/mL

---

Test system: N. gonorrhoeae WHO G
Test details: Liquid broth MIC in Fastidious broth
Assay type: cell-based
Recorded conditions: Neisseria gonorrhoeae; N. gonorrhoeae WHO G; Fastidious broth; read-out: Minimum Inhibitory Concentration, WHO G
Quantity kind: MIC

Sample records with MIC:
CCN1CCN(C(=O)N[C@H](C(=O)N[C@H]2Cc3ccc(F)c(C(=O)O)c3OB2O)c2ccc(O)c(O)c2)C(=O)C1=O :: > 64 µg/mL
CCN1CCN(C(=O)N[C@@H](C(=O)N[C@H]2Cc3ccc(F)c(C(=O)O)c3OB2O)c2ccc(O)c(O)c2)C(=O)C1=O :: 16 to 32 µg/mL
CCN1CCN(C(=O)N[C@@H](C(=O)N[C@H]2Cc3ccc(F)c(C(=O)O)c3OB2O)c2c(Cl)cc(O)c(O)c2F)C(=O)C1=O (single isomer, unassigned) :: 16 to 32 µg/mL

Now for another entry.
Item: CS(=O)(=O)N1CCN(C(=O)NC(C(=O)N[C@H]2Cc3ccc(F)c(C(=O)O)c3OB2O)c2c(Cl)cc(O)c(O)c2F)C1=O (stereo partly shown) | MIC: 16 to 32 µg/mL

---

Tested on: N. gonorrhoeae WHO L
Test details: Liquid broth MIC in Fastidious broth
Format: cell-based
Recorded conditions: Neisseria gonorrhoeae; N. gonorrhoeae WHO L; Fastidious broth; read-out: Minimum Inhibitory Concentration, WHO L
Description: Example V: In Vitro Antibacterial Assays for N. gonorrhoeae Strains Additional antibacterial testing of the series was performed in 8 reference strains of N. gonorrhoeae (ATCC 49226, FA1090, WHO G, WHO L, WHO K, H041, WHO Z, and WHO Q). ATCC 49226, FA1090, WHO G, and WHO L produce wild type or wild-type like PBP2. […] After the dilution plates were set up, direct suspensions were then diluted in a cuvette containing sterile saline and the optical density was measured at 600 nm. […]
Items are presented alongside their recorded MIC.

Here's what some known entries look like.
CCN1CCN(C(=O)N[C@@H](C(=O)N[C@H]2Cc3ccc(F)c(C(=O)O)c3OB2O)c2c(Cl)cc(O)c(O)c2F)C(=O)C1=O (single isomer, unassigned) [Example 207] :: > 64 µg/mL
CCN1CCN(C(=O)NC(C(=O)N[C@H]2Cc3cccc(C(=O)O)c3OB2O)c2cc(C#N)c(O)cc2F)C(=O)C1=O (some centres unmarked) [Example 209] :: 16 to 32 µg/mL
CCN1CCN(C(=O)N[C@H](C(=O)N[C@H]2Cc3cccc(C(=O)O)c3OB2O)c2ccc(C(=O)O)c(F)c2Cl)C(=O)C1=O (single isomer, unassigned) [Example 202] :: > 64 µg/mL
CCN1CCN(C(=O)N[C@@H](C(=O)N[C@H]2Cc3cccc(C(=O)O)c3OB2O)c2ccc(C(=O)O)c(F)c2Cl)C(=O)C1=O (single isomer, unassigned) [Example 203] :: > 64 µg/mL

Here's the next entry for you.
Memo: CCN1CCN(C(=O)NC(C(=O)N[C@H]2Cc3cccc(C(=O)O)c3OB2O)c2ccc(C(=O)O)c(Cl)c2Cl)C(=O)C1=O (some centres unmarked) [Example 201] , reported MIC: > 64 µg/mL

---

Recorded MIC by entry
Tested on: P. aeruginosa (ΔmexAB-oprM)
Test details: Broth microdilution MIC in CAMHB
Type: cell-based
Recorded conditions: Pseudomonas aeruginosa, read-out: Minimum Inhibitory Concentration, P. aeruginosa ΔmexAB-OprM

// worked examples, MIC included
CCN1CCN(C(=O)NC(C(=O)N[C@H]2Cc3cccc(C(=O)O)c3OB2O)c2cc(NS(N)(=O)=O)ccc2F)C(=O)C1=O (stereo partly drawn) [Example 197] :: 2 to 4 µg/mL
NCCN1CCN(C(=O)N[C@@H](C(=O)N[C@H]2Cc3cccc(C(=O)O)c3OB2O)c2c(O)cc(O)cc2F)C(=O)C1=O (single isomer, unassigned) [Example 194] :: 8 to 16 µg/mL
C[C@H]1CN(CCF)C(=O)C(=O)N1C(=O)NC(C(=O)N[C@H]1Cc2cccc(C(=O)O)c2OB1O)c1cc(F)c(O)c(F)c1F (stereo partly drawn) [Example 248] :: 8 to 16 µg/mL
Nc1nc(C(=O)NC(C(=O)N[C@H]2Cc3cccc(C(=O)O)c3OB2O)c2c(F)cc(O)cc2F)cs1 (stereo partly drawn) [Example 251] :: 32 to 64 µg/mL
CCN1CCN(C(=O)NC(C(=O)N[C@H]2Cc3cccc(C(=O)O)c3OB2O)c2cc(Cl)c(O)c(Cl)c2)C(=O)C1=O (stereo partly drawn) [Example 171] :: 2 to 4 µg/mL

Looking up CCN1CCN(C(=O)N[C@@H](C(=O)N[C@H]2Cc3cccc(C(=O)O)c3OB2O)c2ccc(C(=O)O)c(Cl)c2F)C(=O)C1=O (single isomer, unassigned) [Example 222] , I found its MIC recorded as 32 to 64 µg/mL

Given item CCN1CCN(C(=O)NC(C(=O)N[C@H]2Cc3ccc(O[C@@H]4CN[C@H](C(=O)N(C)C)C4)c(C(=O)O)c3OB2O)c2ccccc2)C(=O)C1=O (stereo partly drawn) [Example 59] , the value recorded as its MIC is 8 to 16 µg/mL

// sample O=C(O)c1cccc2c1OB(O)[C@@H](NC(=O)C(NC(=O)N1CCN(CC3CNC3)C(=O)C1=O)c1c(F)cc(O)cc1F)C2 (stereo partly drawn) [Example 193] , its MIC was 8 to 16 µg/mL

# compound C[C@H]1CN(CCN)C(=O)C(=O)N1C(=O)NC(C(=O)N[C@H]1Cc2cccc(C(=O)O)c2OB1O)c1c(F)cc(O)cc1F (stereo partly drawn) [Example 234] ; its MIC = 8 to 16 µg/mL

Measured MIC of NC1(CN2CCN(C(=O)N[C@H](C(=O)N[C@H]3Cc4cccc(C(=O)O)c4OB3O)c3c(F)cc(O)cc3F)C(=O)C2=O)CC1 (single isomer, unassigned) [Example 122] : 32 to 64 µg/mL

MIC recorded for this compound, CCN1CCN(C(=O)N[C@H](C(=O)N[C@H]2Cc3ccc(F)c(C(=O)O)c3OB2O)c2c(F)cc(O)c(O)c2Cl)C(=O)C1=O (single isomer, unassigned) [Example 125] , is 32 to 64 µg/mL

Given item NCCN1CCN(C(=O)N[C@@H](C(=O)N[C@H]2Cc3cccc(C(=O)O)c3OB2O)c2c(Cl)cccc2Cl)C(=O)C1=O (single isomer, unassigned) [Example 224] , the value recorded as its MIC is > 128 µg/mL
